# credit: patent US8349868B2

Collagen Prolyl Hydroxylase I (CPH1) (Homo sapiens, UniProt P13674) measurements of IC50, listed per entry.
Sequence (P13674 18-534 isoform P13674-2): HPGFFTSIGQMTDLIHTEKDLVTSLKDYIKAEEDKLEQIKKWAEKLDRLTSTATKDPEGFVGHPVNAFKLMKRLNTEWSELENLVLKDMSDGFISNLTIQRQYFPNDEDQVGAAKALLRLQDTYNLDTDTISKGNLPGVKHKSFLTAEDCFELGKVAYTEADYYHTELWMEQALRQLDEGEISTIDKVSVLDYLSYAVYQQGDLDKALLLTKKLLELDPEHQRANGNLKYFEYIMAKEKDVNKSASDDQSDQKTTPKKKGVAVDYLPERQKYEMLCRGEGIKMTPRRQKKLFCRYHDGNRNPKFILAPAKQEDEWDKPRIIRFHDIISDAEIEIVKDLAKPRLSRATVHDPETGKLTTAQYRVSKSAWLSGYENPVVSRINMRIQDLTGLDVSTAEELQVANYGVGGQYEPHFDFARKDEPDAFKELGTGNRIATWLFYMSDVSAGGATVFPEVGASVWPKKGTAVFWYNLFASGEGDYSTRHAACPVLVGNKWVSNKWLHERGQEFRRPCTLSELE
Sequence (P07237 18-508 partner): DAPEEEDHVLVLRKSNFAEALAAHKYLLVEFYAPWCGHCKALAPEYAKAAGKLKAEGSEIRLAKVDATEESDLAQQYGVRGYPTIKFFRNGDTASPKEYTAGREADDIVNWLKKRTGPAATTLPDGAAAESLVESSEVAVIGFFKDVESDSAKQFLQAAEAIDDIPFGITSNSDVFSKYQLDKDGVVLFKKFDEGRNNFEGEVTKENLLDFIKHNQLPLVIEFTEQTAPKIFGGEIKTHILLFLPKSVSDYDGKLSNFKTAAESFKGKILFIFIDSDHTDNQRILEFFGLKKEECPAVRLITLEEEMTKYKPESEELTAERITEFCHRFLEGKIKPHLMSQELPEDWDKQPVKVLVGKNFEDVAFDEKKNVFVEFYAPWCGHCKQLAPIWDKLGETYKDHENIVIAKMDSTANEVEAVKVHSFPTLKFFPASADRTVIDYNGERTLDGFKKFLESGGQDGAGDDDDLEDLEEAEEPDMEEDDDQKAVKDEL
Note: unit nM is implicit; provide only the numeric part.

{"columns": ["compound", "IC50, nM"],
 "data": [
  ["Cn1c(=O)c(C(=O)NCC(=O)O)c(O)c2c(Br)cccc21 [Comparative Compound 1, reference compound]", 341]
]}

[in] For Cn1c(=O)c(C(=O)NCC(=O)O)c(O)c2cc(Br)ccc21 [Comparative Compound 2, reference compound] , what is its reported IC50?
[out] 404

[in] State the recorded IC50 for this entry: Cn1c(=O)c(C(=O)NCC(=O)O)c(O)c2ccc(Br)cc21 [Comparative Example 3, reference compound]
[out] 351

[in] Consider the compound Cn1c(=O)c(C(=O)NCC(=O)O)c(O)c2cccc(Br)c21 [Comparative Example 4, reference compound] and give its measured IC50.
[out] 503

[in] Please give the measured IC50 for this compound: `Cn1c(=O)c(C(=O)CCC(=O)O)c(O)c2cccc(Br)c21`
[out] 22700
